Where do the numbers come from? From PubChem BioAssay (NCI).

# EXPERIMENT SUMMARY: NCI Yeast Anticancer Drug Screen. Data for the sgs1 mgt1 strain (AID 161);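 note: 0% = growth of cultures given vehicle only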
# SETTINGS: S. cerevisiae sgs1 mgt1 strain, at 50.0 µM
# Experimental: Growth inhibition of yeast strains with defined genetic alterations is measured as a screen for potential anti-cancer activity. Selected strains with alterations in DNA damage repair or cell cycle control were exposed to compounds and growth inhibition was measured relative to vehicle treated controls. The strain used in this assay is sgs1 mgt1
The panel holds about 79,000 compounds, 15% with a hit somewhere; the sample as a whole holds those more often. The source made the active and inactive calls. Cut-off read from the data, not from the text of the source: active = growth inhibition above about 70%; inactive = the rest.
Labels: 1 = active, 0 = inactive

>  <MOLECULE>
CC(N)C(C)(C)O (centres undefined)

>  <ASSIGNED LABEL>
0

$$$$
>  <MOLECULE>
CC(C)CNN(CC(C)C)C(N)=O

>  <ASSIGNED LABEL>
0

$$$$
>  <MOLECULE>
COc1ccc2c(c1)CCCN2

>  <ASSIGNED LABEL>
0

$$$$
>  <MOLECULE>
CC1CN(CCCOC(=O)Nc2cccc3ccccc23)CCN1Cc1ccccc1 (centres undefined)

>  <ASSIGNED LABEL>
1

$$$$
>  <MOLECULE>
Nc1c(S(=O)(=O)O)cc(Br)c2c1C(=O)c1ccccc1C2=O

>  <ASSIGNED LABEL>
0

$$$$
>  <MOLECULE>
COc1ccc(N(N=Nc2ccccc2)C(C)=O)cc1

>  <ASSIGNED LABEL>
0

$$$$
>  <MOLECULE>
CCCCCCCC/C=C/CCCCCCCC(=O)NN(C)C

>  <ASSIGNED LABEL>
0

$$$$
>  <MOLECULE>
Cc1cc2nc(C(C)(C)O)[nH]c2cc1C

>  <ASSIGNED LABEL>
0

$$$$
>  <MOLECULE>
c1ccc2c(CCNC3=NCCO3)cccc2c1

>  <ASSIGNED LABEL>
0

$$$$
>  <MOLECULE>
[B-][N+]1(C)CC[N+]([B-])(C)CC1 (centres undefined)

>  <ASSIGNED LABEL>
0

$$$$
>  <MOLECULE>
COc1ccccc1NC(=O)C1=C(C)NC(C)=C(C(=O)Nc2ccccc2OC)C1c1cccc2ccccc12

>  <ASSIGNED LABEL>
0

$$$$
>  <MOLECULE>
CN(C)CC(=O)N1CCc2c([nH]c3ccccc23)C1c1cccnc1 (centres undefined)

>  <ASSIGNED LABEL>
0

$$$$
>  <MOLECULE>
Cc1ccc(S(=O)(=O)OCC(C)C(c2ccccc2)c2ccccc2)cc1 (centres undefined)

>  <ASSIGNED LABEL>
0

$$$$
>  <MOLECULE>
Cc1c(Cl)ccc2c1NC(=O)C2(O)CC(=O)c1ccc(Cl)cc1Cl (centres undefined)

>  <ASSIGNED LABEL>
0

$$$$
>  <MOLECULE>
O=C(c1ccccc1)N1CC2CCC1CN2C(=O)c1ccccc1

>  <ASSIGNED LABEL>
0

$$$$
>  <MOLECULE>
O=C(NN1C(=O)CS(=O)(=O)C1c1ccccc1F)c1ccncc1 (centres undefined)

>  <ASSIGNED LABEL>
0

$$$$
>  <MOLECULE>
Cc1cccc2c1Oc1ccccc1C2NC(=O)OCCc1ccccc1 (centres undefined)

>  <ASSIGNED LABEL>
0

$$$$
>  <MOLECULE>
N#Cc1c(-c2ccc([N+](=O)[O-])cc2)c(C#N)c(=O)n(NS(=O)(=O)c2ccccc2)c1-c1ccccc1

>  <ASSIGNED LABEL>
0

$$$$
>  <MOLECULE>
COC(=O)CCC(=O)c1ccc2c(c1)CC1(C2)Cc2ccc3c(c2C1)CCCC3=O (centres undefined)

>  <ASSIGNED LABEL>
0

$$$$
>  <MOLECULE>
O=C(O)Cc1cc(=O)[nH]n(-c2ccccc2)c1=O

>  <ASSIGNED LABEL>
0

$$$$
>  <MOLECULE>
CCCC(=O)C(N)Cc1ccc(O)cc1 (centres undefined)

>  <ASSIGNED LABEL>
0

$$$$
>  <MOLECULE>
S=C(N/N=C1\CSCc2ccccc21)Nc1cc(Cl)ccc1Cl

>  <ASSIGNED LABEL>
0

$$$$
>  <MOLECULE>
Cc1ccc(Nc2ccc(O)c3c2C(=O)c2ccccc2C3=O)cc1

>  <ASSIGNED LABEL>
0

$$$$
>  <MOLECULE>
CC(=O)Nc1nc(C)c(CC/C=C/c2ccc([N+](=O)[O-])cc2)c(=O)[nH]1

>  <ASSIGNED LABEL>
0

$$$$
